target: human Thyroid Receptor alpha (THRa1), THRA (gene 7067) (UniProt P10827); assay: ATG_THRa1_TRANS: Attagene TRANS-FACTORIAL HepG2 Assay for human Thyroid Receptor alpha (THRa1) (AID 2283014)
Sequence (P10827 whole entry, looked up): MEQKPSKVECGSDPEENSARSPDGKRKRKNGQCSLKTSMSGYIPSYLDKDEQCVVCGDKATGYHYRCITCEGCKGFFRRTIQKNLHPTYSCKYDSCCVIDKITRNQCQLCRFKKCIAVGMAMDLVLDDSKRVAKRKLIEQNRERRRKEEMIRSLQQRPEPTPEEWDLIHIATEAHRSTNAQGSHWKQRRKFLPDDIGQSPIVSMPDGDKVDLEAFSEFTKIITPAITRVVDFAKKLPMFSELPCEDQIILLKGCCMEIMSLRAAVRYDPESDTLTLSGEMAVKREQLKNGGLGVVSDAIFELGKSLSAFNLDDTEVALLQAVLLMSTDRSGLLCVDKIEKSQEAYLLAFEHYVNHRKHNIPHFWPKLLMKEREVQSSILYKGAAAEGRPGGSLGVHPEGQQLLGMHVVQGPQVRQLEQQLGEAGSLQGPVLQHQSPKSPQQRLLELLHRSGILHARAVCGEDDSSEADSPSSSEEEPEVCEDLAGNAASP
Inconclusive results are not listed. The source made the active and inactive calls. How the source made its calls: active means hit-call score of the fitted dose curve at least 0.9, where 1 is the maximum; inconclusive means response in the unintended direction; inactive means score below 0.9.
Form entry, call: pick from active, inactive

Below are worked cases with known answers.
{"COMPOUND_SMILES": "O=c1cc(-c2ccc(O)cc2)oc2cc(O)cc(O)c12", "LABEL_VALUE": "inactive"}
{"COMPOUND_SMILES": "CCCCN(CCCC)CCCCCCN(CCCC)CCCC", "LABEL_VALUE": "inactive"}
{"COMPOUND_SMILES": "CCCCOCCOCCOCCO", "LABEL_VALUE": "inactive"}

Which outcome was entered for the compound CC(C)(C)c1cc(CCC(=O)OCCSCCOC(=O)CCc2cc(C(C)(C)C)c(O)c(C(C)(C)C)c2)cc(C(C)(C)C)c1O in this test?
inactive

Which outcome was entered for the compound CC(=O)CCC(=O)O in this test?
inactive

Which outcome was entered for the compound CCC(C)(C)c1cc(O)c(C(C)(C)CC)cc1O in this test?
inactive

Which outcome was entered for the compound c1ccc(OCCOc2ccccc2)cc1 in this test?
inactive

Which outcome was entered for the compound O=Cc1ccccc1O in this test?
inactive

Which outcome was entered for the compound CC(=O)C1=C(C)[C@@H]2C[C@@]3(C1)[C@H](C)CC[C@H]3C2(C)C in this test?
inactive

Which outcome was entered for the compound C=CCCCCCCCCC(=O)OCC in this test?
inactive

----------
biological target: Estrogen receptor (Homo sapiens); assay: CCTE_Deisenroth_AIME_384WELL_LUC_Shift: CCTE's 384-well Estrogen Receptor Transactivation Assay with AIME metabolic competence data shift (ERTA luciferase; difference in metabolism positive and negative), Deisenroth Lab (AID 2284041);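 further: shift is response with S9 minus without S9 so positive means metabolism raised ER signal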
The source made the active and inactive calls. The calls were made as follows: active = hit-call score of the fitted dose curve at least 0.9, where 1 is the maximum; inactive = score below 0.9.
Form entry, call: pick from 1 (yes) (active), 0 (no) (inactive)

Below are worked cases with known answers.
{"COMPOUND": "CC(C)C(=O)c1ccccc1", "LABEL_VALUE": "0 (no)"}
{"COMPOUND": "CC(C)N(c1ccccc1)C(C)C", "LABEL_VALUE": "0 (no)"}
{"COMPOUND": "[O-]/[N+](=N\\O)c1ccccc1", "LABEL_VALUE": "1 (yes)"}
{"COMPOUND": "COc1ccc2[nH]cc(CCNC(C)=O)c2c1", "LABEL_VALUE": "0 (no)"}
{"COMPOUND": "Cc1cccc(O)c1", "LABEL_VALUE": "0 (no)"}

Which outcome was entered for the compound CCCCCCCCCCCCN1CCOCC1 in this test?
0 (no)

Which outcome was entered for the compound CC(CCO)CC(C)(C)C (centres undefined) in this test?
0 (no)

Which outcome was entered for the compound O=C1OC2(c3ccc(O)cc3Oc3cc(O)ccc32)c2ccccc21 in this test?
0 (no)

Which outcome was entered for the compound CC(=O)c1ccc2ccccc2c1 in this test?
0 (no)

----------
experiment: CCTE_Shafer_MEA_dev_mutual_information_norm: CCTE's Neural Network Formation Assay for Mutual Information Normalization, Shafer Lab (AID 2284091);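 on AC50: mutual information between electrodes summarised as area under curve across four recording days; potency is for a decrease in mutual information relative to DMSO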
Calls of active or inactive are those of the source. The calls were made as follows: active = hit-call score of the fitted dose curve at least 0.9, where 1 is the maximum; inactive = score below 0.9.

{"COMPOUND": "C[C@]12CC[C@@H]3c4ccc(O)cc4CC[C@H]3[C@@H]1CC[C@@H]2O", "AC50": "inactive"}
{"COMPOUND": "CC(C)Cc1ccc(C(C)C(=O)O)cc1 (centres undefined)", "AC50": "3.62 µM (active)"}
{"COMPOUND": "N[C@@H](CCC(=O)O)C(=O)O", "AC50": "inactive"}
{"COMPOUND": "N#CCCNCCC#N", "AC50": "inactive"}
